Biological target: T1, Human recombinant CD5L protein (Sino Biological, Catalog Number 10791-H08H) (human, UniProt O43866 20-347)
T1 construct: Bought protein; also called human CD5L; CD5L-His; not shown: 6xHIS-tag
T1 sequence (looked up): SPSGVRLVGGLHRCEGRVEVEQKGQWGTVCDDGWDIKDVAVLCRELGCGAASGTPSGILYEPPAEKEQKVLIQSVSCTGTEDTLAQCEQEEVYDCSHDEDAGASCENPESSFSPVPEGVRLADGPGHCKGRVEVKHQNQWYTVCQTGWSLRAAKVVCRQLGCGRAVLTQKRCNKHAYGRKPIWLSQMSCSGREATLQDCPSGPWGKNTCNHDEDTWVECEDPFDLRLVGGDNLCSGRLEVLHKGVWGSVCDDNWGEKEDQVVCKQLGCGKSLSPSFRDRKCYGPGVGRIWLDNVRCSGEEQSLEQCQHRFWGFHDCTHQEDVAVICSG
Test: titration ELISA, human CD5L coated on plate
Assignment: determine reported EC50 for the given binders.
Answers are plain numbers, in µg/mL.

BINDER: R-6 (antibody, V domains shown) VH: QSLEESGGRLVTPGTPLTLTCTVSTIDVSKYAVIWVRQAPGKGLEYIGIISSSGSTYYASWAKGRFTISKTSSTTVDLKMTSPTAEDTATYFCARGGNGVAFKLWGQGTLVTISS VL: ELDMTQTPASVEAAVGGTVTINCQASESINDRLAWYQLKPGQPPKLLIYETSQVESGVPSRFSGSGSGTQFTLTISDLECADAATYYCQSHDYISSSGMPFGGGTEVVVK
EC50 / µg/mL: 0.187

BINDER: R-10 (antibody, V domains shown) VH: QSVKESGGRLVTPGTPLTLTCTLSGIDLSSYAMGWVRQAPGKGLEYIGIIGASGTTYYANWAKGRFTISRTSTTVDLKITSPTTEDTATYFCARAGYAGTGYPTRLDLWGQGTLVTISS VL: ELDMTQTPASVEAAVGGTVTIKCQASQSISSSYLAWYQQKPGQPPKLLIYKASTLESGVPSRFSGSGSGTEFTLTISGVQCDDAATYYCLGGYFSFSNYDYGFGGGTEVEIK
EC50 / µg/mL: 0.307

Please look at the following binder next.
According to the records, this binder H-119 (antibody, V domains shown) VH: EVQLVQSGAEVKKPGESLKISCKGSGYSFTSYWIGWVRQMPGKGLEWMGIIYPGDSDTRYSPSFQGQVTISADKSISTAYLQWSSLKASDTAMYYCARGLAASTRFDPWGQGTLVTVSS VL: DVQMTQSPSSLSASVGDRVTITCRPSQSINNYLNWYQQKPGEAPKLLIYAASNLQSGVPSRFSGSGSGTDFTLTISSLQPEDFGTYYCQQSYSIPLTFGGGTTVEIK displays EC50 of 0.0068
